- TARGET ENTITY: Nav 1.7 (Homo sapiens (Human), UniProt Q15858)
- Sequence (Q15858 whole entry): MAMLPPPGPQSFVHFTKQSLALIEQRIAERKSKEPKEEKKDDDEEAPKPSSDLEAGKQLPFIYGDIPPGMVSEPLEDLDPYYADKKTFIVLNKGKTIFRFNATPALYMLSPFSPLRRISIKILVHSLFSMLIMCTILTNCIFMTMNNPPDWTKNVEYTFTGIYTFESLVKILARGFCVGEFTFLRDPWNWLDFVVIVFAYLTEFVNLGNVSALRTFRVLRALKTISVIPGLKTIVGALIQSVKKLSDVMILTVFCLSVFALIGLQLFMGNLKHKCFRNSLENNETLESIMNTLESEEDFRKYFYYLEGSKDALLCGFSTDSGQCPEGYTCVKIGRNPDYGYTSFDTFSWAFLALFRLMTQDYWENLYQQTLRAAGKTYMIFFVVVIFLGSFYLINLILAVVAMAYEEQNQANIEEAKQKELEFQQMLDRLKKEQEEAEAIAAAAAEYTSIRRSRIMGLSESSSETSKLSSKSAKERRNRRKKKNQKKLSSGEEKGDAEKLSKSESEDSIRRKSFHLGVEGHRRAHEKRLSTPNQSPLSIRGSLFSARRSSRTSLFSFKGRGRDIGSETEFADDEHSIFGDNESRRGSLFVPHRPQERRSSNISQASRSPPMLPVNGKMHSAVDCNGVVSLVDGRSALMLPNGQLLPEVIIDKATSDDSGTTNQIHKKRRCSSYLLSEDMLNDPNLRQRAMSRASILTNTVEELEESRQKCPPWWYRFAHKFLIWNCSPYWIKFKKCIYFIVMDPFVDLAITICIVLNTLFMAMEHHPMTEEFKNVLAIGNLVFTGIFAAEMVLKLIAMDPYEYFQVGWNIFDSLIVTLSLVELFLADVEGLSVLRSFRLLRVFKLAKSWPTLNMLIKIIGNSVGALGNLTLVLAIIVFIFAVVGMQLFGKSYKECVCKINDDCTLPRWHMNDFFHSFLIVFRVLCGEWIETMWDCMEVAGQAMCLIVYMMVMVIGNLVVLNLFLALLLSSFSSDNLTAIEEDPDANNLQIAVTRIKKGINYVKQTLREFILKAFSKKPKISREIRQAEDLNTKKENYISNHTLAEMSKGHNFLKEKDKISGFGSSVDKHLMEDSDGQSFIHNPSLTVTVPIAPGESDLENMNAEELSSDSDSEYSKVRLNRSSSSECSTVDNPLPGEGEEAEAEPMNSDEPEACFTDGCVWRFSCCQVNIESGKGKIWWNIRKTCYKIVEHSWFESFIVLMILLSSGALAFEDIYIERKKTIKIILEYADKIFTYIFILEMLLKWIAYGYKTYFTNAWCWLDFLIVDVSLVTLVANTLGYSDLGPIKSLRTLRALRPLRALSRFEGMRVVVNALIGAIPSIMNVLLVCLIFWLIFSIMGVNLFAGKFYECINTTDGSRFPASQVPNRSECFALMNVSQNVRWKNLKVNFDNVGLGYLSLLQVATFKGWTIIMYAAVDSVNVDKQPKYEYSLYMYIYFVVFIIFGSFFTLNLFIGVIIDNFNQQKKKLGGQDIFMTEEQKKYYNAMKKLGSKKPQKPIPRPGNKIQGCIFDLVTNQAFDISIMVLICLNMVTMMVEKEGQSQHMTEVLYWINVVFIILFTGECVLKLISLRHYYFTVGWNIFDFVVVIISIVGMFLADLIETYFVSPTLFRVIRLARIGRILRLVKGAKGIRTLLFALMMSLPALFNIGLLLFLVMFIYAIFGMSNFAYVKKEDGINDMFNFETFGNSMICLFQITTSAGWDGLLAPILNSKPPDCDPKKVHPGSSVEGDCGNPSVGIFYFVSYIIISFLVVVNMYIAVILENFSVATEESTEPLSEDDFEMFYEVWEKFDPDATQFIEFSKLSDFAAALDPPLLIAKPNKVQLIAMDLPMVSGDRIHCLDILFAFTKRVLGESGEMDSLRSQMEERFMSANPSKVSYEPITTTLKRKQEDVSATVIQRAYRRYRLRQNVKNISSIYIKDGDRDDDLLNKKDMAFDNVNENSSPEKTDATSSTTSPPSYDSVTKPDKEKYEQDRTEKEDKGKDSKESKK
- PROTOCOL NOTES: in-vitro Nav 1.7 PX data
- Type: cell-based
- MEASUREMENT SETUP: in-vitro Nav 1.7 PX data
MEASURED ENDPOINT: pIC50
Reminder that pIC50 means the negative base-10 logarithm of the concentration expressed in mol/L.

For orientation, consider the following solved cases.
INSERT INTO measurements (compound_structure, result_number) VALUES
  ('Cc1ccc(OCc2ccccc2)cc1-c1nccc2cc(S(=O)(=O)Nc3ccncn3)ccc12', 6.37),
  ('COc1cc(NS(=O)(=O)c2ccc3c(-c4ccc(-c5cc(F)cc(F)c5)cc4OC)nccc3c2)no1', 5.84),
  ('COc1cc(-c2ccc(C)c(Cl)c2)c(C#N)cc1-c1nccc2cc(S(=O)(=O)Nc3ccncn3)ccc12', 7.41);

Input COc1cc(Oc2ccc(F)c(C)c2)ccc1-c1nccc2cc(S(=O)(=O)Nc3ccncn3)ccc12 , output reported pIC50.
5.80

Input Cc1ccc(Oc2ccccn2)cc1-c1nccc2cc(S(=O)(=O)Nc3ccncn3)ccc12 , output reported pIC50.
5.24

Input COc1cc(-c2cc(F)cc(F)c2)ccc1-c1nccc2cc(S(=O)(=O)Nc3ccon3)ccc12 , output reported pIC50.
6.77

Input COc1cc(C#N)c(-c2cc(F)cc(F)c2)cc1-c1nccc2cc(S(=O)(=O)Nc3ccon3)ccc12 , output reported pIC50.
4.82
